Origin of values: patent EP0266828B1

For each record, write down the corresponding MBC.
# Test system: Enterobacter aerogenes, ATCC #13048
# assay info: Kill time evaluation (concentration that kills all cells)
# Type: cell-based
# setup conditions: Klebsiella aerogenes, ATCC13048; 24 hr; pH 8.5; hardness 500 ppm CaCo3; read-out: Ppm of the Compound that Kill all Cells
Your answer is read as µg/mL, so omit the unit and give the number.

// query Could you share which MBC value was measured for "CCCCCCCCCCSCCN" ?
// result 40

// query Same question for "CCCCCCCCSCCN" please.
// result 75

// query And what about the compound "CCCCCCSCCN" ?
// result 250

// query Same thing, different compound: "CCCCCCCCCCCCSCCN"
// result 150

* * *

Assay system Enterobacter aerogenes; read-out recorded as MIC.
State just the number; it will be interpreted in µg/mL.

// query Quick one: MIC of "CCCCCCCCSCCN" ?
// result 25

// query And for "CCCCCCCCCSCCN" ?
// result 25

// query Now give it for "CCCCCCCCCCCSCCN" too.
// result 50

* * *

As a worked illustration, we turn to MIC data collected for Enterobacter aerogenes.

// query Can you look up the measured MIC of "CCCCCCCCCCCCCCSCCN" for me?
// result > 500 µg/mL

// query Please do the same for "CCCCCCSCCN" as well.
// result 250 to 500 µg/mL

// query Now give it for "CCCCCCCCCCCCSCCN" too.
// result 50 to 100 µg/mL

// query Then this compound: "CCCCCCCCCCSCCN"
// result 10 to 25 µg/mL
